Tested on: DLD-1
run-description: Growth inhibitory activity against DLD-1 cells done for 48 h at 37 degree C with compound
Type: functional
condition-info: Homo sapiens, DLD-1, 48 h
readout-name: GI50 (µM)

Clc1ccc(-c2noc(-c3occc3Cl)n2)nc1 | 0.6
COc1ccc(-c2noc(-c3sccc3Cl)n2)cc1 | 0.93
FC(F)(F)c1ccc(-c2noc(-c3occc3Br)n2)cc1 | 0.13
Clc1ccc(-c2noc(-c3occc3Cl)n2)cc1 | 0.51
Clc1ccc(-c2noc(-c3occc3Br)n2)cc1 | 0.51
Clc1ccc(-c2noc(-c3occc3Br)n2)nc1 | 0.43
Clc1ccc(-c2noc(-c3sccc3Cl)n2)cc1 | 0.4
Cc1ccc(-c2noc(-c3sccc3Cl)n2)cc1 | 0.85
Clc1ccc(-c2noc(-c3sccc3Cl)n2)nc1 | 0.8
FC(F)(F)c1ccc(-c2noc(-c3sccc3Cl)n2)cc1 | 0.77

A. FC(F)(F)c1ccc(-c2noc(-c3sccc3Cl)n2)nc1
B. FC(F)(F)c1ccc(-c2noc(-c3occc3Cl)n2)cc1
C. Clc1ccc(-c2noc(-c3sccc3Br)n2)cc1
[ask] Order the entries by their reported GI50, beginning at the minimum. Labels, requested order.
[reply] B, C, A

---

Test system: T47D
run-description: Growth inhibitory activity aganist T47D cells done for 48 hr at 37 degree C with compound
Assay type: functional
condition-info: Homo sapiens
readout-name: GI50 (nM)

FC(F)(F)c1ccc(-c2noc(-c3sccc3Cl)n2)nc1 | 350
Clc1ccc(-c2noc(-c3occc3Cl)n2)nc1 | 13000
FC(F)(F)c1ccc(-c2noc(-c3sccc3Cl)n2)cc1 | 220
Clc1ccc(-c2noc(-c3occc3Br)n2)cc1 | 120
FC(F)(F)c1ccc(-c2noc(-c3occc3Cl)n2)cc1 | 170

P. Clc1ccc(-c2noc(-c3occc3Cl)n2)cc1
Q. FC(F)(F)c1ccc(-c2noc(-c3occc3Br)n2)cc1
R. Clc1ccc(-c2noc(-c3sccc3Br)n2)cc1
[ask] Order the records by GI50, with each subsequent value no larger than the one before. Please list each label once, in the requested order.
[reply] R, Q, P

1. Clc1ccc(-c2noc(-c3sccc3Cl)n2)nc1
2. COc1ccc(-c2noc(-c3sccc3Cl)n2)cc1
[ask] Pick one, 1 or 2 : lowest reported GI50. Your choice should be expressed through its label.
[reply] 1
(1: 200 nM, 2: 520 nM)

---

System: T47D
run-description: Growth inhibitory activity aganist T47D cells done for 48 hr at 37 degree C with compound
Format: functional
condition-info: Homo sapiens
readout-name: GI50 (nM)

1. Clc1ccc(-c2noc(-c3sccc3Cl)n2)cc1
2. Clc1ccc(-c2noc(-c3occc3Br)n2)nc1
3. Cc1ccc(-c2noc(-c3sccc3Cl)n2)cc1
[ask] Lab note: rank above entries, GI50 ascending. List the labels, following the order given in the request.
[reply] 1, 2, 3

Numbers sourced from ChEMBL document CHEMBL1141144.
